Data credit: paper PMC8970883

# testMethodNotes: Pharmacokinetic study in rats after intragastric administration of Farfarae Flos extract (plasma, LC-MS/MS)
# Assay type: in vivo
# conditionSummary: rat plasma, oral Farfarae Flos extract 7.8 g·kg^−1, mean ± SD
Hi there, I'd appreciate the recorded AUC(0–24h) for every entry that follows.
Answers are plain numbers, in ng/mL ∗ h.

C=C1[C@H](OC(=O)/C=C(\C)CC)C[C@@H](C(C)C)[C@@H]2[C@@H]([C@@H](C)OC(C)=O)C(=O)C[C@@H]12 ... 35.48
O=C(/C=C/c1ccc(O)c(O)c1)O[C@H]1[C@H](O)C[C@](O)(C(=O)O)C[C@H]1O ... 1938
O=c1c(O[C@@H]2O[C@H](CO)[C@@H](O)[C@H](O)[C@H]2O)c(-c2ccc(O)c(O)c2)oc2cc(O)cc(O)c12 ... 16.15
O=C(/C=C/c1ccc(O)c(O)c1)O[C@@H]1C[C@](O)(C(=O)O)C[C@@H](O)[C@H]1O ... 3611

Read the next record carefully.
(Q) Endpoint output: AUC(0–24h) of O=C(C=Cc1ccc(O)c(O)c1)OC1CC(O)(C(=O)O)CC(O)C1OC(=O)C=Cc1ccc(O)c(O)c1 (centres unmarked) . Value?
(A) 823.4

* * *

# testMethodNotes: Stability of QC samples in rat plasma (24 h, freeze-thaw, 4 weeks)
# Type: in vitro ADME
# conditionSummary: high concentration level (3000-30000 ng·mL^−1), freeze-thaw cycles −20°C to 20°C, six replicates
valueType: Freeze-thaw stability, percent remaining
Please state the value followed by its unit.

O=C(/C=C/c1ccc(O)c(O)c1)O[C@@H]1C[C@@](O)(C(=O)O)C[C@@H](O)[C@@H]1O ... 87.0%
O=C(O)/C=C/c1ccc(O)c(O)c1 ... 85.5%
C=C1[C@H](OC(=O)/C=C(\C)CC)C[C@@H](C(C)C)[C@@H]2[C@@H]([C@@H](C)OC(C)=O)C(=O)C[C@@H]12 ... 91.8%
C[C@@H]1O[C@@H](OC[C@H]2O[C@@H](Oc3c(-c4ccc(O)c(O)c4)oc4cc(O)cc(O)c4c3=O)[C@H](O)[C@@H](O)[C@@H]2O)[C@H](O)[C@H](O)[C@H]1O ... 116%
O=C(C=Cc1ccc(O)c(O)c1)OC1CC(O)(C(=O)O)CC(O)C1OC(=O)C=Cc1ccc(O)c(O)c1 (centres unmarked) ... 93.7%

// each compound listed below needs its Freeze-thaw stability, percent remaining
1. O=C(/C=C/c1ccc(O)c(O)c1)O[C@@H]1C[C@](O)(C(=O)O)C[C@@H](O)[C@H]1O
2. O=C(/C=C/c1ccc(O)c(O)c1)O[C@H]1[C@H](O)C[C@](O)(C(=O)O)C[C@H]1O
3. O=c1c(O[C@@H]2O[C@H](CO)[C@@H](O)[C@H](O)[C@H]2O)c(-c2ccc(O)c(O)c2)oc2cc(O)cc(O)c12

(A)
1: 115%; 2: 93.2%; 3: 110%

* * *

# testMethodNotes: Pharmacokinetic study in rats after intragastric administration of Farfarae Flos extract (plasma, LC-MS/MS)
# Format: in vivo
# conditionSummary: male; rat plasma, oral Farfarae Flos extract 3.9 g·kg^−1, mean ± SD; read-out: MRT(0–∞)
Would you mind labelling by MRT inf? At or over 8 h is True, under is False.

O=c1c(O[C@@H]2O[C@H](CO)[C@@H](O)[C@H](O)[C@H]2O)c(-c2ccc(O)c(O)c2)oc2cc(O)cc(O)c12 ... False
O=C(O)/C=C/c1ccc(O)c(O)c1 ... True
O=C(C=Cc1ccc(O)c(O)c1)OC1CC(O)(C(=O)O)CC(O)C1OC(=O)C=Cc1ccc(O)c(O)c1 (centres unmarked) ... True
C=C1[C@H](OC(=O)/C=C(\C)CC)C[C@@H](C(C)C)[C@@H]2[C@@H]([C@@H](C)OC(C)=O)C(=O)C[C@@H]12 ... False
C[C@@H]1O[C@@H](OC[C@H]2O[C@@H](Oc3c(-c4ccc(O)c(O)c4)oc4cc(O)cc(O)c4c3=O)[C@H](O)[C@@H](O)[C@@H]2O)[C@H](O)[C@H](O)[C@H]1O ... False
O=C(/C=C/c1ccc(O)c(O)c1)O[C@H]1[C@H](O)C[C@](O)(C(=O)O)C[C@H]1O ... False

Then there is this compound:
(Q) Hi, just wondering whether `O=C(/C=C/c1ccc(O)c(O)c1)O[C@@H]1C[C@](O)(C(=O)O)C[C@@H](O)[C@H]1O` shows MRT inf of 8 h or higher.
(A) False

* * *

Hi there, I'd appreciate the recorded MRT inf for every entry that follows.
# testMethodNotes: Pharmacokinetic study in rats after intragastric administration of Farfarae Flos extract (plasma, LC-MS/MS)
# Type: in vivo
# conditionSummary: male; rat plasma, oral Farfarae Flos extract 7.8 g·kg^−1, mean ± SD; read-out: MRT(0–∞)
Answers are plain numbers, in h.

C=C1[C@H](OC(=O)/C=C(\C)CC)C[C@@H](C(C)C)[C@@H]2[C@@H]([C@@H](C)OC(C)=O)C(=O)C[C@@H]12 ... 6.98

// each compound listed below needs its MRT inf
1. O=c1c(O[C@@H]2O[C@H](CO)[C@@H](O)[C@H](O)[C@H]2O)c(-c2ccc(O)c(O)c2)oc2cc(O)cc(O)c12
2. C[C@@H]1O[C@@H](OC[C@H]2O[C@@H](Oc3c(-c4ccc(O)c(O)c4)oc4cc(O)cc(O)c4c3=O)[C@H](O)[C@@H](O)[C@@H]2O)[C@H](O)[C@H](O)[C@H]1O
3. O=C(C=Cc1ccc(O)c(O)c1)OC1CC(O)(C(=O)O)CC(O)C1OC(=O)C=Cc1ccc(O)c(O)c1 (centres unmarked)
4. O=C(/C=C/c1ccc(O)c(O)c1)O[C@H]1[C@H](O)C[C@](O)(C(=O)O)C[C@H]1O

(A)
1. 9.94
2. 6.02
3. 13.8
4. 6.23

* * *

# testMethodNotes: Stability of QC samples in rat plasma (24 h, freeze-thaw, 4 weeks)
# Format: in vitro ADME
# conditionSummary: high concentration level (3000-30000 ng·mL^−1), stored at −80°C for 4 weeks, six replicates
Hi there, I'd appreciate the recorded Long stability Remain (%) for every entry that follows.
Numbers only, in %.

The following compounds have reported results that may help.
O=C(/C=C/c1ccc(O)c(O)c1)O[C@@H]1C[C@](O)(C(=O)O)C[C@@H](O)[C@H]1O ... 112
O=C(C=Cc1ccc(O)c(O)c1)OC1CC(O)(C(=O)O)CC(O)C1OC(=O)C=Cc1ccc(O)c(O)c1 (centres unmarked) ... 106
O=C(O)/C=C/c1ccc(O)c(O)c1 ... 81.1
C=C1[C@H](OC(=O)/C=C(\C)CC)C[C@@H](C(C)C)[C@@H]2[C@@H]([C@@H](C)OC(C)=O)C(=O)C[C@@H]12 ... 109
O=C(/C=C/c1ccc(O)c(O)c1)O[C@@H]1C[C@@](O)(C(=O)O)C[C@@H](O)[C@@H]1O ... 114
O=c1c(O[C@@H]2O[C@H](CO)[C@@H](O)[C@H](O)[C@H]2O)c(-c2ccc(O)c(O)c2)oc2cc(O)cc(O)c12 ... 92.3

// each compound listed below needs its Long stability Remain (%)
1. O=C(/C=C/c1ccc(O)c(O)c1)O[C@H]1[C@H](O)C[C@](O)(C(=O)O)C[C@H]1O
2. C[C@@H]1O[C@@H](OC[C@H]2O[C@@H](Oc3c(-c4ccc(O)c(O)c4)oc4cc(O)cc(O)c4c3=O)[C@H](O)[C@@H](O)[C@@H]2O)[C@H](O)[C@H](O)[C@H]1O

(A)
1. 95.9
2. 89.6

* * *

# testMethodNotes: Stability of QC samples in rat plasma (24 h, freeze-thaw, 4 weeks)
# Type: in vitro ADME
# conditionSummary: medium concentration level (100-1000 ng·mL^−1), 24 hours at 20°C, six replicates
valueType: 24 h stability Remain (%)
Give bare numbers, in %.

The following molecules have reported results that may help.
C=C1[C@H](OC(=O)/C=C(\C)CC)C[C@@H](C(C)C)[C@@H]2[C@@H]([C@@H](C)OC(C)=O)C(=O)C[C@@H]12 ... 92.1
O=C(/C=C/c1ccc(O)c(O)c1)O[C@H]1[C@H](O)C[C@](O)(C(=O)O)C[C@H]1O ... 112
O=c1c(O[C@@H]2O[C@H](CO)[C@@H](O)[C@H](O)[C@H]2O)c(-c2ccc(O)c(O)c2)oc2cc(O)cc(O)c12 ... 113
O=C(C=Cc1ccc(O)c(O)c1)OC1CC(O)(C(=O)O)CC(O)C1OC(=O)C=Cc1ccc(O)c(O)c1 (centres unmarked) ... 105

Read the next record carefully.
(Q) Endpoint output: 24 h stability Remain (%) of `O=C(O)/C=C/c1ccc(O)c(O)c1` . Value?
(A) 113
